- method: chemical genetic growth profiling, strain panel (AID 1159580);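 note: tested at 20 µM; growth read once vehicle control cultures reached saturation at 30 °C; 1 = growth at the plate median or of vehicle wells; lower values mean less growth of the strain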
- assay.context: S. cerevisiae deletion strains, growth OD, locus YLR113W, strain HOG1, hits give low values
Out of some 5,500 compounds screened, about 2,000 (36%) were called active. Another 18% or so got no clear call; they are omitted. Some of the results follow.
measurement.kind: normalized growth
Keep the answer to the number alone.

For the compound `C=CCc1ccc(OC(=O)c2ccccc2)c(OC)c1` , report normalized growth. 0.841

For the compound COC(=O)[C@@H]1OC(=O)C2OC23[C@@]1(C)CCC1[C@]2(C)C(C[C@H](O)[C@]13C)C(C)(C)[C@H](OC(C)=O)C[C@@H]2OC(C)=O (some centres not stated) , report normalized growth. 1.04

For the compound `C=CCc1ccc(O)c(OC)c1` , report normalized growth. 0.962

For the compound `O=[N+]([O-])c1ccc(ON=C2CCCCC2)c([N+](=O)[O-])c1` , report normalized growth. 0.749

For the compound `C#CCN(C)Cc1ccccc1` , report normalized growth. 1

For the compound `O=C(/C=C/c1ccc2c(c1)OCO2)Nc1ccc(Br)cc1` , report normalized growth. 0.754

For the compound `C=CCc1ccc(OC)cc1` , report normalized growth. 0.992

For the compound CCOC(=O)C1C(c2c(F)cccc2Cl)C(C(=O)OCC)C(O)(C(F)(F)F)NC1(O)C(F)(F)F (configuration not stated) , report normalized growth. 0.926

For the compound `O=C1C(Cl)=C(Cl)C(=O)C(Cl)=C1Cl` , report normalized growth. 0.145

For the compound `OC[C@@H](O)[C@@H](O)[C@H](O)[C@@H](O)CO` , report normalized growth. 0.989

For the compound `Cc1cccc(NC(=S)N/N=C\c2ccc(F)cc2)c1` , report normalized growth. 0.847

For the compound COc1ccc(C(CN(C)C)C2(O)CCCCC2)cc1 (configuration not stated) , report normalized growth. 1.04
